biological target: CDK1/CyclinB (Homo sapiens); construct: purchased Upstate Discovery; experiment: Activated CDK1/CyclinB kinase inhibitory activity assay; format: biochemical
Sequence (P06493 whole entry): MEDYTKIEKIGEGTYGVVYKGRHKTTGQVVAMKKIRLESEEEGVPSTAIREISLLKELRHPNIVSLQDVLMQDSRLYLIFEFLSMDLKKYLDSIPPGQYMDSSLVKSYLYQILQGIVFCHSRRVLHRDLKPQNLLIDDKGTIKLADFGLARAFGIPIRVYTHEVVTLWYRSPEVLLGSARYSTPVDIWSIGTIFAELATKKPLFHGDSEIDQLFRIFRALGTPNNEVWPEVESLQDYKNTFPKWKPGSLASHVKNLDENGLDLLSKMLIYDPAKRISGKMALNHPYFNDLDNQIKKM
Sequence (P14635 whole entry partner): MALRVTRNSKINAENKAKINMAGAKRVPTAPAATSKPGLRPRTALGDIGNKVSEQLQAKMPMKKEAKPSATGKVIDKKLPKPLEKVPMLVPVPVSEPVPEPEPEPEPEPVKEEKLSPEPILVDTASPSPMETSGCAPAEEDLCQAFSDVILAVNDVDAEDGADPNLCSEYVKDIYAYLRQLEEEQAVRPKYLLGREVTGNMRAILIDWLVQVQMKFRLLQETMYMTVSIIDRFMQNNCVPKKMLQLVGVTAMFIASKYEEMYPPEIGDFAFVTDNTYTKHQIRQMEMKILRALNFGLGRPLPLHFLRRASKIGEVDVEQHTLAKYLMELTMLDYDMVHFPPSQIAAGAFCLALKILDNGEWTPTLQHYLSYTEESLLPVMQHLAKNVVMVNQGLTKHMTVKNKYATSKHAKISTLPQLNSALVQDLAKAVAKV
pIC50: −log10 of the molar value.
assay_endpoint: pIC50

As a guide, the following entries are already answered.
>>> assay_value("O=C(NCc1ccco1)Nc1c[nH]nc1-c1nc2cc(CN3CCOCC3)ccc2[nH]1")
"> 5.00"
>>> assay_value("O=C(Nc1c[nH]nc1-c1nc2cc(CN3CCOCC3)ccc2[nH]1)NC1CC1")
"> 5.00"
>>> assay_value("CN(C(=O)Nc1c[nH]nc1-c1nc2cc(CN3CCOCC3)ccc2[nH]1)c1ccccc1F")
"> 4.30"

Ask | Look up and report measured pIC50 for this entry: O=C(Nc1ccc(F)cc1F)Nc1c[nH]nc1-c1nc2cc(CN3CCOCC3)ccc2[nH]1
Reply | > 5.00

Ask | Look up and report measured pIC50 for this entry: O=C(Nc1ccccc1F)Nc1c[nH]nc1-c1nc2cc(CN3CCOCC3)ccc2[nH]1
Reply | > 5.00

Ask | Look up and report measured pIC50 for this entry: O=C(Nc1cccc(F)c1)Nc1c[nH]nc1-c1nc2cc(CN3CCOCC3)ccc2[nH]1
Reply | > 5.00

Ask | Look up and report measured pIC50 for this entry: O=C(NCc1c(F)cccc1F)Nc1c[nH]nc1-c1nc2cc(CN3CCOCC3)ccc2[nH]1
Reply | > 4.30

Ask | Look up and report measured pIC50 for this entry: Cc1nc2sccn2c1C(=O)Nc1c[nH]nc1-c1nc2cc(CN3CCOCC3)ccc2[nH]1
Reply | > 4.30

Ask | Look up and report measured pIC50 for this entry: CN(C(=O)Nc1c[nH]nc1-c1nc2cc(CN3CCOCC3)ccc2[nH]1)c1cccc(F)c1
Reply | > 5.00

Ask | Look up and report measured pIC50 for this entry: O=C(Nc1c[nH]nc1-c1nc2cc(CN3CCOCC3)ccc2[nH]1)[C@@H]1CCCO1
Reply | > 6.00

Ask | Look up and report measured pIC50 for this entry: O=C(Nc1c[nH]nc1-c1nc2cc(CN3CCOCC3)ccc2[nH]1)N1Cc2ccccc2C1
Reply | > 5.00

Ask | Look up and report measured pIC50 for this entry: O=C(Nc1c[nH]nc1-c1nc2cc(CN3CCOCC3)ccc2[nH]1)NC1CCOCC1
Reply | > 4.30

Ask | Look up and report measured pIC50 for this entry: Cn1cccc(NC(=O)Nc2c[nH]nc2-c2nc3cc(CN4CCOCC4)ccc3[nH]2)c1=O
Reply | > 5.00
